molecular target: T1, Recombinant human bFGF (human, UniProt P09038 143-288, limits assumed); experiment: ELISA, coated human bFGF
T1 construct: Bought (Sigma); also called hFGF-2; human basic fibroblast growth factor
T1 sequence (P09038 143-288 limits assumed): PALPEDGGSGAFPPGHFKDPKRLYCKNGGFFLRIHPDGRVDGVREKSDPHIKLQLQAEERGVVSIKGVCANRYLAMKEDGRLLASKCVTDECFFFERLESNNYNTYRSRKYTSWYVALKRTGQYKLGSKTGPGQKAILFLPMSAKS
readout_name: pEC50
The meaning of pEC50 here: minus log10 of the concentration in molar units.

Query string: Assign pEC50 to the following record: Nb-FF2\cmycH6 (VHH, Nb-FF2 without c-myc tracer peptide and histidine tag) QVQLVESGGGLVQPGGSLRLSCAASGTEDGRLLTLGGSWFRQAPGQGLEAVAAIGAGDRGGATYYADSVKGRFTISRDNSKNTLYLQMNSLRAEDTAVYYCTALYERQPQLAATKVARKWGQGTLVTVSSAHHSEDPSSKAPKAPAQVQLVESGGGLVQPGGSLRLSCAASGTEDGRLLTLGGSWFRQAPGQGLEAVAAIGAGDRGGATYYADSVKGRFTISRDNSKNTLYLQMNSLRAEDTAVYYCTALYERQPQLAATKVARKWGQGTLVTVSS
Result string: 8.22
